Just for reference, patent US11840686B2 is where these values come from.

System: human PKK mRNA
Experiment: Antisense inhibition of human PKK mRNA in HepaRG cells, 3,000 nM (Example 1)
Format: cell-based
Details: Table 2; PKK mRNA, HepaRG cells, 3,000 nM, electroporation, ~24 h, relative to untreated control cells
Strand notation (5' to 3'): a small letter for the sugar, then the base; units joined by * are phosphorothioate-linked, units joined directly phosphodiester-linked; [ ] holds rarer units or linkages, { } end groups; capitals alone tell only the bases. e = 2'-O-(2-methoxyethyl) (MOE); [5mC] = 5-methylcytosine; d = 2'-deoxy (DNA)
Label condition met when % inhibition is at or above 50%; anything below gets condition not met.

Some solved entries appear below for comparison.
| substance | qualitativeLabel |
| --- | --- |
| 531066 (eA*eG*e[5mC]*eG*eA*d[5mC]*dT*dT*dT*dG*dG*dT*dG*dT*dA*eG*eA*e[5mC]*eA*e[5mC]; antisense) [compound 531066] | condition met |
| 531025 (eT*e[5mC]*eT*e[5mC]*eT*dT*dT*dT*dA*dT*dT*dT*dG*dT*dG*eA*eG*eA*eA*eA; antisense) [compound 531025] | condition not met |

Test whether the substance 531035 (antisense eG*eT*eA*eG*eG*d[5mC]*dA*dT*dA*dT*dT*dG*dG*dT*dT*eT*eT*eT*eG*eG) [compound 531035] records % inhibition of 50% or higher.
condition not met

Test whether the substance 531030 (antisense eA*eA*eT*eT*e[5mC]*dA*dG*dT*dG*dT*dA*dA*dT*dT*d[5mC]*eA*eA*eA*eG*eG) [compound 531030] records % inhibition of 50% or higher.
condition not met

Test whether the substance 531020 (eA*eA*eG*e[5mC]*e[5mC]*d[5mC]*dA*dT*d[5mC]*dA*dA*dA*dG*d[5mC]*dA*eG*eT*eG*eG*eG; antisense) [compound 531020] records % inhibition of 50% or higher.
condition not met

Test whether the substance 531022 (eG*eT*eA*eA*eT*dG*dT*d[5mC]*dT*dG*dA*d[5mC]*dA*dG*dA*eT*eT*eT*eA*eA; antisense) [compound 531022] records % inhibition of 50% or higher.
condition met

Test whether the substance 531028 (antisense eA*eA*eT*eT*e[5mC]*dA*dA*dA*dG*dG*dA*dG*d[5mC]*d[5mC]*dT*eG*eG*eA*eG*eT) [compound 531028] records % inhibition of 50% or higher.
condition met

Test whether the substance 531079 (eT*e[5mC]*e[5mC]*eT*e[5mC]*dA*dG*d[5mC]*dA*dG*d[5mC]*dT*d[5mC]*dT*dG*eA*eG*eT*eG*e[5mC]; antisense) [compound 531079] records % inhibition of 50% or higher.
condition met

Test whether the substance 531039 (antisense eT*eA*e[5mC]*e[5mC]*e[5mC]*dA*dA*d[5mC]*dA*dG*dT*dT*dG*dG*dT*eA*eT*eA*eA*eA) [compound 531039] records % inhibition of 50% or higher.
condition not met

Test whether the substance 531056 (antisense eT*eT*eT*e[5mC]*e[5mC]*d[5mC]*d[5mC]*d[5mC]*dT*dT*d[5mC]*dT*dT*dT*dA*eT*eA*eG*e[5mC]*e[5mC]) [compound 531056] records % inhibition of 50% or higher.
condition not met

Test whether the substance 531050 (antisense eT*eT*eG*eG*eG*dT*dT*dA*dT*dT*dT*dT*dA*dT*dA*eA*eT*e[5mC]*eT*eT) [compound 531050] records % inhibition of 50% or higher.
condition not met
